# target.under.test: ANO1/CaCC (TMEM16A) (Homo sapiens, UniProt Q5XXA6)
# Construct: ANO1 cDNA
# Sequence (Q5XXA6 whole entry): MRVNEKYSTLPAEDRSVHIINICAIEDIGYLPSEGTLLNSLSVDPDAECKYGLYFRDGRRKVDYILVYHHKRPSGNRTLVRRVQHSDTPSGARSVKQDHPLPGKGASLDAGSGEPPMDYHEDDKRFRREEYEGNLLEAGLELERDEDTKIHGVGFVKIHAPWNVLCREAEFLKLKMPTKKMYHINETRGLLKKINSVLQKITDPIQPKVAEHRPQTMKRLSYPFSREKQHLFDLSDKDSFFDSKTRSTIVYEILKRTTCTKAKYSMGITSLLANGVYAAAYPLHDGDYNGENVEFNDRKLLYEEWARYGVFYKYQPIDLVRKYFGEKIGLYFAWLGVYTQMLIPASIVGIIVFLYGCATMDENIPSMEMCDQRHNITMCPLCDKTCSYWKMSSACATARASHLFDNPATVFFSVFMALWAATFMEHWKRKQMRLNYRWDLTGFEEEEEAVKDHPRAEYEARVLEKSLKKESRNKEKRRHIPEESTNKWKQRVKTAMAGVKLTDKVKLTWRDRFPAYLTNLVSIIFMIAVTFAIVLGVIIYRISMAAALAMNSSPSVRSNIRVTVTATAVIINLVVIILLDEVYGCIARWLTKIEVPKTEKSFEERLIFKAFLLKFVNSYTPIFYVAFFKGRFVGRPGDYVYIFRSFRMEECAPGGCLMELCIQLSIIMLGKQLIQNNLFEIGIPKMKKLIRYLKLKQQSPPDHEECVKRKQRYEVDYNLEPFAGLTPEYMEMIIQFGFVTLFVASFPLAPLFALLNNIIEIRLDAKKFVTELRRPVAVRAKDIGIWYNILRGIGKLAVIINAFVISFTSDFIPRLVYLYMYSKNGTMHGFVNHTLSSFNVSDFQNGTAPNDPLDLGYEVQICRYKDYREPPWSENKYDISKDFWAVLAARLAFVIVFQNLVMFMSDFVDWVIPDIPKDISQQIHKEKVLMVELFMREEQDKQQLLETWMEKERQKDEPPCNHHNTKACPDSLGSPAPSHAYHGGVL
# protocol.text: Eact-induced short-circuit current in ANO1-expressing FRT cells
assay.metric: IC50 (µM)
# value in µM; strip the unit string

State its IC50 on ANO1/CaCC (TMEM16A) (Homo sapiens, UniProt Q5XXA6): COc1ccc([C@H]2OC[C@H]3[C@@H]2CO[C@@H]3c2ccc(OC)c(OC)c2)cc1OC
200
